Assay: in vivo
Conditions: DBA/1LacJ, mouse, in vivo, ip, 1 mg/kg, Plasma concentration of vincristine
Description: were collected at the final time point. […] specimens were stored at -80°C until further processing. […] stainless steel bead (Qiagen) and processed for 4 min at 40 Hz. […] Pharmacokinetic parameters were calculated by non -compartmental analysis using Phoenix WinNonlin version 8.0 (Certara). Peak plasma concentration (C max) was determined by visual inspection of the data from the concentration-time curves. […] quantification was 5 ng/mL. […]

# Compound Structure, Readout Unit, concentration at 1 h
measured = [
    ("CC[C@]1(O)C[C@H]2CN(CCc3c([nH]c4ccccc34)[C@@](C(=O)OC)(c3cc4c(cc3OC)N(C=O)[C@H]3[C@@](O)(C(=O)OC)[C@H](OC(C)=O)[C@]5(CC)C=CCN6CC[C@]43[C@@H]65)C2)C1", "ng/mL", 315),
]
